Biological target: Nuclear receptor coactivator 3 (Homo sapiens) (UniProt Q9Y6Q9)
Sequence (Q9Y6Q9 whole entry, looked up): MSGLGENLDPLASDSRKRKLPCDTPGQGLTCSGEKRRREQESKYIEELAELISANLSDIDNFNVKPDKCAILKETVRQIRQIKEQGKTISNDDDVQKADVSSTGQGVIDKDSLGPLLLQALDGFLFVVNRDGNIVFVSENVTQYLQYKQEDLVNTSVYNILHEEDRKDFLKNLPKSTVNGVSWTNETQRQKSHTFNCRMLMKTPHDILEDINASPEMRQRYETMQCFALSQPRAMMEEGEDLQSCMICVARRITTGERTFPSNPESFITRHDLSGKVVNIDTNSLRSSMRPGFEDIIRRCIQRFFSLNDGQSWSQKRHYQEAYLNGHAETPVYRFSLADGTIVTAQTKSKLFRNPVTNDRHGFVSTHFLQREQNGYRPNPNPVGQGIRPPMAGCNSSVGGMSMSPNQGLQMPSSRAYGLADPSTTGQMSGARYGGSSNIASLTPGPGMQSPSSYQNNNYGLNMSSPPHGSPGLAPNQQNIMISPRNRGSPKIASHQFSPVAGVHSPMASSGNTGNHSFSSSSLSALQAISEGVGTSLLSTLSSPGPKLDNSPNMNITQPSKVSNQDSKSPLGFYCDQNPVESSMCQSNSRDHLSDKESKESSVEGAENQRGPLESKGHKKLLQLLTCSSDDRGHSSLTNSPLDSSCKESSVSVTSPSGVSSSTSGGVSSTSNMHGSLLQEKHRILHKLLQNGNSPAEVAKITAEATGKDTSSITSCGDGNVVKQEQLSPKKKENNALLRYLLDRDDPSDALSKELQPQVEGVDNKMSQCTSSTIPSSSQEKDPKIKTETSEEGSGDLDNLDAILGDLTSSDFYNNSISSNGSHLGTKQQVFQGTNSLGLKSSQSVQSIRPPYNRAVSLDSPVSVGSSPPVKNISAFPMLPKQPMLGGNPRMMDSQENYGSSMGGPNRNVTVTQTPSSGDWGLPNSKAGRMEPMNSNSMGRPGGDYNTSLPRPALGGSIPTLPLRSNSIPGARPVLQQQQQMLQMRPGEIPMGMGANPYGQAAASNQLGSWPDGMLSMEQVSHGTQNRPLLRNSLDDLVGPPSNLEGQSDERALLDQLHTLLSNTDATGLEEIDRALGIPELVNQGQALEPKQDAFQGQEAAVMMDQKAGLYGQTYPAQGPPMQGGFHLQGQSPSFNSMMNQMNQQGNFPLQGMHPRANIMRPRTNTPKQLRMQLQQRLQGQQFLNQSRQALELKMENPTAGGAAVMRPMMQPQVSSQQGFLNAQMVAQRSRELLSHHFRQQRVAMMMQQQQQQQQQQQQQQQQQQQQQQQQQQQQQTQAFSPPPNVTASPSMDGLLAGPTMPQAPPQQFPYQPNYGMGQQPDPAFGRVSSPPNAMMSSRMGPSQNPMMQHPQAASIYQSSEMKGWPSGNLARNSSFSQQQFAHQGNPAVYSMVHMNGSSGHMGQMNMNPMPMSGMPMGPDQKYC
Assay: SRC3 coactivator transcriptional activity inhibitors, confirmation, cell-based, luminescence, quadruplicate (AID 588792);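 further: 0% = DMSO treated cells and 100% = gossypol at 36 µM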
Conditions: HEK293 GAL4-SRC3 luciferase reporter, at 3.6 µM, active compounds read high
Could you label it yes if measured inhibition is 80% or higher, and no otherwise?

Textbook exercise: given the entry O=C1C(=O)c2ccccc2-c2ccccc21 , state whether its inhibition is greater than or equal to 80%.
yes

// inclusive: inhibition at least 80%? input: O=C(Nc1ccc(OC(=O)N2CCCCC2)cc1)N1CCOCC1
no

Given CNC(=O)c1cccn(Cc2cccc(C(F)(F)F)c2)c1=O , state whether its inhibition is at least 80%.
no

Does the reported inhibition for O=c1[nH]c2ccccc2n1C1CCN(C(CCc2ccccc2)c2nnnn2C2CCCCC2)CC1 (centres undefined) fall at or above the 80% mark?
no

// inclusive: inhibition at least 80%? input: CCC(C)(O)C(=O)OC1C(=O)OC2CC3C(C)=CC(=O)C(O)C3(C)C3C4(O)OCC23C1C(C)C4O (centres undefined)
yes

Hello, I need to know if O=c1[nH]c2ccccc2n1C1CCN(C(c2ccccc2OC(F)(F)F)c2nnnn2Cc2ccccc2)CC1 (centres undefined) has measured inhibition not below 80%. Thanks!
no

Form field: inhibition at least 80%? Entry: C[C@]12CC[C@H](O)C[C@H]1CC[C@@H]1C2CC[C@]2(C)[C@@H](C3=CC(=O)OC3)[C@@H](O)C[C@]12O (some centres undefined)
no

Item CCCc1nc2ccc(Br)cc2c(=O)n1-c1ccc([N+](=O)[O-])c(C(F)(F)F)c1 with inhibition of 80% or above?
no

Please check the record Cc1cc2c(C(C)C)c(O)c(O)c(C=O)c2c(O)c1-c1c(C)cc2c(C(C)C)c(O)c(O)c(C=O)c2c1O and state if its inhibition is at or above 80%.
no

###

Test: VP16 transactivation inhibitors, counter-screen for SRC1 inhibitor project, cell-based, luminescence, high throughput (AID 588824)
Details: cell-based VP16 transactivation luciferase luminescence; at 3.6 µM
Activity calls are given as the source filed them. No stated cut-off is given here; in the data, active means inhibition above about 25%; inactive means the rest.
Write down the outcome that applies. Available outcomes: YES (active), NO (inactive)

Hi, do you know how C[C@@H]1O[C@@H](O[C@H]2C[C@@H](O)[C@]3(CO)[C@@H]4C(CC[C@]3(O)C2)[C@@]2(O)CC[C@H](C3COC(=O)C3)[C@@]2(C)C[C@H]4O)[C@H](O)[C@H](O)[C@H]1O (stereo partly drawn) came out in this test?
YES

What classification did O=C1/C(=C/c2ccccc2)C[C@@]2(O)[C@H]3Cc4ccc(O)c5c4[C@@]2(CCN3CC2CC2)C1O5 (stereo partly drawn) end up with in this test?
YES

What did the test return for CC(=O)OCC12CC(OC(=O)CC(C)C)C(C)=CC1OC1C(O)C(OC(C)=O)C2(C)C12CO2 (stereo not drawn) ?
YES

Entry O=c1[nH]c2ccccc2n1C1CCN(C(c2cc3ccccc3o2)c2nnnn2Cc2ccccc2)CC1 (stereo not drawn) : call = ?
NO

What outcome does the record of this test show for CCC(C)(O)C(=O)OC1C(=O)OC2CC3C(C)=CC(O)C(O)C3(C)C3C4(O)OCC23C1C(C)C4O (stereo not drawn) ?
YES

Tell me the assay call for CC[n+]1c(-c2ccccc2)c2cc(N)ccc2c2ccc(N)cc21 please.
YES

What outcome does the record of this test show for CC12CCC3C(CCC4(O)CC(O)CCC34C=O)C1(O)CCC2C1=CC(=O)OC1 (stereo not drawn) ?
YES

Test call, this compound: CC1OC(OC2CC(O)C3(CO)C4C(O)CC5(C)C(C6=CC(=O)OC6)CCC5(O)C4CCC3(O)C2)C(O)C(O)C1O (stereo not drawn)
YES

###

Experiment: VP16 transactivation reporter inhibitors, counter-screen for LRH-1 inverse agonist project, cell-based, luminescence, high throughput (AID 651615)
Conditions: Gal4-VP16 luciferase reporter cells, at 3.6 µM, active compounds read high
We use 90% as the dividing line for inhibition: on or above the line is label 1, below is label 0.

Can CC(=O)OC1CC2OC3C=C(C)CCC3(C)C1(C)C21CO1 (stereo unspecified) be said to have inhibition at or above 90%?
label 1

# bool: inhibition of CCOc1ccc(-c2cc(C)[n+](CCc3ccc(OC)c(OC)c3)c(-c3ccc(OCC)cc3)c2)cc1 >= 90%
label 0

Please check the record COC1C(O)C(C)OC(OC2CCC3(C=O)C(CCC4C3CCC3(C)C(C5=CC(=O)OC5)CCC43O)C2)C1O (stereo unspecified) and state if its inhibition is at or above 90%.
label 1

Given the entry Nc1ncnc2c1ccn2[C@@H]1O[C@H](CO)[C@@H](O)[C@H]1O , answer whether its inhibition meets or surpasses 90%.
label 1

API: above_or_equal(metric=inhibition, cutoff=90%) for item CC(=O)OCC12CC(OC(=O)CC(C)C)C(C)=CC1OC1C(O)C(OC(C)=O)C2(C)C12CO2 (stereo unspecified)
label 1

Can Cn1cc(NC(=O)CCl)cn1 be said to have inhibition at or above 90%?
label 0

Please tell me: is the compound Cc1cc(OCC(=O)OC(C)C)c2c3c(c(=O)oc2c1)CCCC3 at or over 90% in terms of inhibition?
label 0

Is reported inhibition greater than or equal to 90% here: CC1=CC2OC3CC4OC(=O)C=CC=CC(=O)OCCC(C)C(O)C(=O)OCC2(CC1)C4(C)C31CO1 (stereo unspecified)
label 1

inhibition >= 90% for O=C1Nc2ccccc2/C1=C/c1cnc[nH]1 ?
label 0

Check if inhibition >= 90% (inclusive). Item: NC(Cc1ccc(F)cc1)c1csc(Nc2ncccn2)n1 (stereo unspecified)
label 0

###

Biological target: Nuclear receptor coactivator 3 (Homo sapiens) (UniProt Q9Y6Q9)
Assay: SRC3 coactivator transcriptional activity inhibitors, confirmation, cell-based, luminescence, quadruplicate (AID 588792);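 further: 0% = DMSO treated cells and 100% = gossypol at 36 µM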
Settings: HEK293 GAL4-SRC3 luciferase reporter, at 3.6 µM
The source made the active and inactive calls.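 How the source made its calls: active means mean inhibition over 43.08%, the solvent-only control mean plus 3 SD; inactive means the rest.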
One label from this list, please: active, inactive

// outcome(item) with item = O=C1NC2C(O)C(O)C(O)C(O)C2c2cc3c(c(O)c21)OCO3 (stereo unspecified)
active

Fill in: this test's call for O=C(c1ccccc1)C(CN1CCCC1)c1ccccc1 (stereo unspecified) is ___
inactive

Give the logged outcome of this assay for the following compound: COc1ccc(-n2c(O)c(C(C)=NCCCn3ccnc3)c(=O)[nH]c2=O)cc1
inactive

Recorded test outcome, item O=c1[nH]c2ccccc2n1C1CCN(C(c2cc3ccccc3o2)c2nnnn2Cc2ccccc2)CC1 (stereo unspecified)
active

Record request — test call for CCCNC(=O)N1[C@H]2CC[C@@H]1C(C(=O)OC)=C(c1ccc(OC(F)(F)F)cc1)C2
inactive

Tell me the recorded outcome of this test for CC1C(OC(=O)CCC(=O)NC(C)(C)CO)O[C@H]2OC3(C)CC[C@H]4[C@H](C)CCC1C24OO3 (stereo partly specified) .
active

Hey, what did the test say about COC(=O)[C@@H]1[C@@H](C(=O)OC)C2(c3ccccc3-c3ccccc32)N(c2ccc(Cl)cc2)N1C#N ?
inactive

Could you kindly confirm the outcome this assay logged for CN1C2CCC1/C(=C/c1ccccn1)C(=O)/C2=C\c1ccccn1 ?
inactive

Hello, I am checking results. What call was entered for CN(C)c1ccc(C(=O)N/N=C/C23CC[C@@H](O)CC2(O)CC[C@@H]2[C@@H]3CCC3(C)C(C4=CC(=O)OC4)CCC23O)cc1 (stereo partly specified) ?
inactive

Assay result, entry NC(=S)c1cn(C2OC(CO)C(O)C2O)c2ncnc(N)c12 (stereo unspecified) — outcome?
active

Would you mind telling me which call this test gave C=C1C(=O)O[C@@H]2C[C@@H](C)[C@@H]3C=CC(=O)[C@@]3(C)[C@@H](OC(=O)CC(=O)O[C@H]3[C@@H]4C(=C)C(=O)O[C@@H]4C[C@@H](C)[C@@H]4C=CC(=O)[C@]43C)[C@H]12 ?
active

Lab log entry: C[C@H]1CCC[C@@H](O)CCC/C=C/c2cc(O)cc(O)c2C(=O)O1 — outcome as called in the assay?
active

Outcome? CC[n+]1c(-c2ccccc2)c2cc(N)ccc2c2ccc(N)cc21
inactive

Please let me know the test result on file for O=c1[nH]c2ccccc2n1C1CCN(C(c2ccccc2)c2nnnn2-c2ccc3c(c2)OCCO3)CC1 (stereo unspecified) .
inactive

What was the test verdict on COc1cc2nc(CN3CC=C(c4ccccc4)CC3)[nH]c(=O)c2cc1OC ?
inactive

Give the logged outcome of this assay for the following compound: Cc1cccc(C)c1-n1nnnc1C(CCc1ccccc1)N1CCC(n2c(=O)[nH]c3ccccc32)CC1 (stereo unspecified)
inactive

So what was the verdict on CN1CCN(c2ncnc3ccc(Br)cc23)CC1 in this test?
inactive

What was the test verdict on Cc1ccccc1-[n+]1c(-c2ccccc2)cc(-c2ccccc2)cc1-c1ccccc1 ?
active

Fill in: this test's call for CCN1/C(=C/C=C/C2=[N+](CC)c3ccccc3C2(C)C)C(C)(C)c2ccccc21 is ___
active

Field: outcome | Entry: CC12CCC3C(CCC4(O)CC(O)CCC34C=O)C1(O)CCC2C1=CC(=O)OC1 (stereo unspecified)
active

Hi team, can someone confirm the assay call for O=c1[nH]c2ccccc2n1C1CCN(C(c2cccc3ccccc23)c2nnnn2-c2ccc3c(c2)OCCO3)CC1 (stereo unspecified) ?
inactive

Field: outcome | Entry: CC(=O)OC1(C)CC(C)C(=O)C(C(O)CC2CC(=O)NC(=O)C2)C1 (stereo unspecified)
active

Hi, sorry to bother you, what did the test record for O=C1CN=C(c2ccc[nH]2)c2cc(Cl)ccc2N1 ?
active

For O=[N+]([O-])c1ccc(N(CCO)CCO)c2c1no[n+]2[O-] , what call appears in the results of this test?
active

What outcome does the record of this test show for O=c1[nH]c2ccccc2n1C1CCN(C(c2cccc3ccccc23)c2nnnn2Cc2ccccc2)CC1 (stereo unspecified) ?
inactive

Short answer needed: outcome of this test for CCC1CN2CCc3cc(OC)c(OC)cc3C2CC1CC1NCCc2c1[nH]c1ccc(O)cc21 (stereo unspecified) ?
active

For this compound, state the assay outcome: COc1ccc(-n2nnnc2C(c2cccc3ccccc23)N2CCC(n3c(=O)[nH]c4ccccc43)CC2)cc1 (stereo unspecified)
inactive

// param item: CCC(C)NC(=O)CCC(=O)OC1O[C@H]2OC3(C)CC[C@H]4[C@H](C)CCC(C1C)C24OO3 (stereo partly specified) ; yields the recorded call
active

Outcome logged for C[C@H]1[C@@H](OS(=O)(=O)O)C[C@@H]2C[C@H]([C@@H](O)c3cc(=O)[nH]c(=O)[nH]3)NC3=NC[C@H]1N32 in this assay:
active

For CC1=CC2OC3CC4OC(=O)C=CC=CC(C(C)O)OCC(O)C(C)CC(=O)OCC2(CC1O)C4(C)C31CO1 (stereo unspecified) , which call appears in the assay record?
active

# fetch the recorded call for COc1ccc(CC2C(=O)NC(C)C(=O)N(C)C3C(=O)N(C)C(Cc4ccc(O)c(c4)Oc4ccc(cc4)C3O)C(=O)NC(C)C(=O)NC(C)C(=O)N2C)cc1 (stereo unspecified) here
active

What outcome does the record of this test show for O=c1[nH]c(O)c(N=Nc2ccc3c(c2)OCCO3)c(=O)[nH]1 ?
active

Can you look up the reported call for Cc1ccc(N=C(/N=C(\N)N[N+](=O)[O-])Nc2ccc(C)cc2)cc1 for me?
inactive

Each compound tested received a call. Report the one for CC(=O)OCC12CC(OC(=O)CC(C)C)C(C)=CC1OC1C(O)C(OC(C)=O)C2(C)C12CO2 (stereo unspecified) .
active

For this compound, state the assay outcome: COc1ccc(-c2cc(-c3ccccc3)[n+](C)c(-c3ccccc3)c2)cc1
inactive

For CC(C)(C)c1cc(C=C(C#N)C#N)cc(C(C)(C)C)c1O , what call appears in the results of this test?
active

These measurements were taken from PubChem BioAssay.
